Documented MFI at 100 nM across a set of binders
assayedSystem: T1, CD226 (Homo sapiens (Human), UniProt Q15762 19-336)
T1 sequence: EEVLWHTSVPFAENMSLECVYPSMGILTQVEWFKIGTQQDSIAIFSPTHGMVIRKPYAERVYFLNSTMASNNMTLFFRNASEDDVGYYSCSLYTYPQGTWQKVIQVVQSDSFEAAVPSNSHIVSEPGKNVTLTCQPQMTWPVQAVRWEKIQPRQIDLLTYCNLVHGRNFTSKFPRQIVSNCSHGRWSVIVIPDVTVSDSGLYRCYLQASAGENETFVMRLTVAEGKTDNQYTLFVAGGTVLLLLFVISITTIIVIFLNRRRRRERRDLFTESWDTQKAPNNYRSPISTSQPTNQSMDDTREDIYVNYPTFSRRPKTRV
assayNotes: flow cytometry, Fc fusion at 100 nM, CD226-transfected cells
testReadout: MFI at 100 nM (MFI)

binder="variant CD155 IgV-Fc S42Q (Fc fusion, not shown: a dimerising Fc or GST) WPPPGTGDVVVQAPTQVPGFLGDSVTLPCYLQVPNMEVTHVQQLTWARHGESGSMAVFHQTQGPSYSESKRLEFVAARLGAELRNASLRMFGLRVEDEGNYTCLFVTFPQGSRSVDIWLRVL" testreadout="MFI at 100 nM" u=MFI measurednumber=2230
binder="variant CD155 IgV-Fc S52M/V57L (Fc fusion, not shown: a dimerising Fc or GST) WPPPGTGDVVVQAPTQVPGFLGDSVTLPCYLQVPNMEVTHVSQLTWARHGEMGSMALFHQTQGPSYSESKRLEFVAARLGAELRNASLRMFGLRVEDEGNYTCLFVTFPQGSRSVDIWLRVL" testreadout="MFI at 100 nM" u=MFI measurednumber=2430
binder="variant CD155 IgV-Fc S52E (Fc fusion, not shown: a dimerising Fc or GST) WPPPGTGDVVVQAPTQVPGFLGDSVTLPCYLQVPNMEVTHVSQLTWARHGEEGSMAVFHQTQGPSYSESKRLEFVAARLGAELRNASLRMFGLRVEDEGNYTCLFVTFPQGSRSVDIWLRVL" testreadout="MFI at 100 nM" u=MFI measurednumber=2600
binder="variant CD155 IgV-Fc T45Q/S52L/V57L/L104E (Fc fusion, not shown: a dimerising Fc or GST) WPPPGTGDVVVQAPTQVPGFLGDSVTLPCYLQVPNMEVTHVSQLQWARHGELGSMALFHQTQGPSYSESKRLEFVAARLGAELRNASLRMFGLRVEDEGNYTCEFVTFPQGSRSVDIWLRVL" testreadout="MFI at 100 nM" u=MFI measurednumber=5940
